test system: MDA-MB-134-VI (FGFR+); assay: MTT cytotoxicity assay; conditions: human, 48 h
pIC50: −log10 of the molar value. Where a SMILES comes first, the peptide text is derived from it. [ ]: non-standard residue; d: D form. The star is where a group is joined. Levulinoyl = CC(=O)CCC(=O)*
property name: pIC50

Lab book: pIC50 of CC(=O)CCC(=O)N[C@@H](C(=O)N[C@@H](CO)C(=O)N1CCC[C@H]1C(=O)N1CCC[C@@H]1C(=O)N[C@@H](CC(C)C)C(=O)N[C@H](C(=O)N[C@@H](CC(C)C)C(=O)NCC(=O)N[C@@H](CCC(N)=O)C(=O)N[C@@H](CC(C)C)C(=O)N[C@@H](CC(C)C)C(=O)N[C@@H](CO)C(N)=O)[C@@H](C)O)C(C)C [peptide P2] (Levulinoyl-[dV]SP[dP]LTLGQLLS-NH2) noted as < 4.00

* * *

test: Stability in aqueous medium (dimethyl sulfoxide/Dulbecco's Modified Eagle Medium) by UV-Vis spectroscopy; type: physicochemical; settings: 5% dimethyl sulfoxide/95% Dulbecco's Modified Eagle Medium; time 0.75 h; band 358-400 nm (λmax in column head)
property name: Relative variation of the maximum absorbance of the charge transfer bands (%)
Your answer should be a plain number; it is taken to be in %.

Lab book: Relative variation of the maximum absorbance of the charge transfer bands of CCOC(=O)Oc1cc[n+]2c(c1)-c1cc(OC)cc[n+]1[Ru-]2([CH]1C=CC=C1)[PH](c1ccccc1)(c1ccccc1)c1ccccc1.O=S(=O)([O-])C(F)(F)F (stereo not drawn) noted as 0.1

Lab book: Relative variation of the maximum absorbance of the charge transfer bands of O=C(Cc1ccccc1)C1=C[CH]([Ru-]2([PH](c3ccccc3)(c3ccccc3)c3ccccc3)[n+]3ccccc3-c3cccc[n+]32)C=C1.O=S(=O)([O-])C(F)(F)F (stereo not drawn) noted as −0.9

Lab book: Relative variation of the maximum absorbance of the charge transfer bands of CC(=O)C1=C[CH]([Ru-]2([PH](c3ccccc3)(c3ccccc3)c3ccccc3)[n+]3ccccc3-c3cccc[n+]32)C=C1.O=S(=O)([O-])C(F)(F)F (stereo not drawn) noted as −2.7

Lab book: Relative variation of the maximum absorbance of the charge transfer bands of CCC(=O)C1=C[CH]([Ru-]2([PH](c3ccccc3)(c3ccccc3)c3ccccc3)[n+]3ccccc3-c3cccc[n+]32)C=C1.O=S(=O)([O-])C(F)(F)F (stereo not drawn) noted as −0.7

Lab book: Relative variation of the maximum absorbance of the charge transfer bands of COc1cc[n+]2c(c1)-c1cc(O)cc[n+]1[Ru-]2([CH]1C=CC=C1)[PH](c1ccccc1)(c1ccccc1)c1ccccc1.O=S(=O)([O-])C(F)(F)F (stereo not drawn) noted as −1.0

Lab book: Relative variation of the maximum absorbance of the charge transfer bands of NNC(=O)C1=C[CH]([Ru-]2([PH](c3ccccc3)(c3ccccc3)c3ccccc3)[n+]3ccccc3-c3cccc[n+]32)C=C1.O=S(=O)([O-])C(F)(F)F (stereo not drawn) noted as −1.3

* * *

test: Stability in organic medium (dimethyl sulfoxide) by UV-Vis spectroscopy; format: physicochemical; conditions: time 4 h, band 357-425 nm (λmax in column head)
Form field: Relative variation of the maximum absorbance of the charge transfer bands (one value per entry).
Your answer should be a plain number; it is taken to be in %.

Some solved cases for reference:
COc1cc[n+]2c(c1)-c1cc(O)cc[n+]1[Ru-]2([CH]1C=CC=C1)[PH](c1ccccc1)(c1ccccc1)c1ccccc1.O=S(=O)([O-])C(F)(F)F (centres unmarked) [compound 10]    3.1
O=C(Cc1ccccc1)C1=C[CH]([Ru-]2([PH](c3ccccc3)(c3ccccc3)c3ccccc3)[n+]3ccccc3-c3cccc[n+]32)C=C1.O=S(=O)([O-])C(F)(F)F (centres unmarked) [compound 9]    0.6

Now, please, on to the next molecule.
Lab book: Relative variation of the maximum absorbance of the charge transfer bands of CC(=O)C1=C[CH]([Ru-]2([PH](c3ccccc3)(c3ccccc3)c3ccccc3)[n+]3cccc4ccc5ccc[n+]2c5c43)C=C1.O=S(=O)([O-])C(F)(F)F (centres unmarked) [compound 6] noted as 1.5

* * *

Assay: Stability in aqueous medium (dimethyl sulfoxide/Dulbecco's Modified Eagle Medium) by UV-Vis spectroscopy
Type: physicochemical
Conditions: 5% dimethyl sulfoxide/95% Dulbecco's Modified Eagle Medium; time 24 h; band 292-296 nm (λmax in column head)
Procedure: The stability of the complexes 4-11 in organic and aqueous media was evaluated over 24 h by UV-Vis spectroscopy at room temperature, in dark, on a Jasco V-660 spectrometer using quartz cuvettes (1 cm optical path length). […]
Form field: Relative variation of the maximum absorbance of the π→π* transitions (one value per entry).
Your answer should be a plain number; it is taken to be in %.

CCOC(=O)Oc1cc[n+]2c(c1)-c1cc(OC)cc[n+]1[Ru-]2([CH]1C=CC=C1)[PH](c1ccccc1)(c1ccccc1)c1ccccc1.O=S(=O)([O-])C(F)(F)F (stereo not drawn)    −1.0
CC(=O)C1=C[CH]([Ru-]2([PH](c3ccccc3)(c3ccccc3)c3ccccc3)[n+]3ccccc3-c3cccc[n+]32)C=C1.O=S(=O)([O-])C(F)(F)F (stereo not drawn)    −1.8
CCC(=O)C1=C[CH]([Ru-]2([PH](c3ccccc3)(c3ccccc3)c3ccccc3)[n+]3ccccc3-c3cccc[n+]32)C=C1.O=S(=O)([O-])C(F)(F)F (stereo not drawn)    6.0
O=C(Cc1ccccc1)C1=C[CH]([Ru-]2([PH](c3ccccc3)(c3ccccc3)c3ccccc3)[n+]3ccccc3-c3cccc[n+]32)C=C1.O=S(=O)([O-])C(F)(F)F (stereo not drawn)    4.5
COc1cc[n+]2c(c1)-c1cc(O)cc[n+]1[Ru-]2([CH]1C=CC=C1)[PH](c1ccccc1)(c1ccccc1)c1ccccc1.O=S(=O)([O-])C(F)(F)F (stereo not drawn)    −7.0

Now, please, on to the next molecule.
Lab book: Relative variation of the maximum absorbance of the π→π* transitions of NNC(=O)C1=C[CH]([Ru-]2([PH](c3ccccc3)(c3ccccc3)c3ccccc3)[n+]3ccccc3-c3cccc[n+]32)C=C1.O=S(=O)([O-])C(F)(F)F (stereo not drawn) noted as 0.1

* * *

assay: Stability in aqueous medium (dimethyl sulfoxide/Dulbecco's Modified Eagle Medium) by UV-Vis spectroscopy; assay type: physicochemical; settings: 5% dimethyl sulfoxide/95% Dulbecco's Modified Eagle Medium; time 5 h; band 292-296 nm (λmax in column head)
Form field: Relative variation of the maximum absorbance of the π→π* transitions (one value per entry).
Your answer should be a plain number; it is taken to be in %.

Some solved cases for reference:
COc1cc[n+]2c(c1)-c1cc(O)cc[n+]1[Ru-]2([CH]1C=CC=C1)[PH](c1ccccc1)(c1ccccc1)c1ccccc1.O=S(=O)([O-])C(F)(F)F (stereo not drawn)    −5.6
CC(=O)C1=C[CH]([Ru-]2([PH](c3ccccc3)(c3ccccc3)c3ccccc3)[n+]3ccccc3-c3cccc[n+]32)C=C1.O=S(=O)([O-])C(F)(F)F (stereo not drawn)    0.7
CCOC(=O)Oc1cc[n+]2c(c1)-c1cc(OC)cc[n+]1[Ru-]2([CH]1C=CC=C1)[PH](c1ccccc1)(c1ccccc1)c1ccccc1.O=S(=O)([O-])C(F)(F)F (stereo not drawn)    −0.7
NNC(=O)C1=C[CH]([Ru-]2([PH](c3ccccc3)(c3ccccc3)c3ccccc3)[n+]3ccccc3-c3cccc[n+]32)C=C1.O=S(=O)([O-])C(F)(F)F (stereo not drawn)    −1.5
CCC(=O)C1=C[CH]([Ru-]2([PH](c3ccccc3)(c3ccccc3)c3ccccc3)[n+]3ccccc3-c3cccc[n+]32)C=C1.O=S(=O)([O-])C(F)(F)F (stereo not drawn)    0.1

Now, please, on to the next compound.
Lab book: Relative variation of the maximum absorbance of the π→π* transitions of O=C(Cc1ccccc1)C1=C[CH]([Ru-]2([PH](c3ccccc3)(c3ccccc3)c3ccccc3)[n+]3ccccc3-c3cccc[n+]32)C=C1.O=S(=O)([O-])C(F)(F)F (stereo not drawn) noted as −0.2

* * *

test system: MDA-MB-231 (FGFR−); test: MTT cytotoxicity assay; conditions: MDA-MB-231; Example 24
property name: IC50 range in words

CC(=O)C1=C[CH]([Ru-]2([PH](c3ccccc3)(c3ccccc3)c3ccccc3)[n+]3ccccc3-c3cccc[n+]32)C=C1.O=S(=O)([O-])C(F)(F)F (stereo not shown)    sub-micromolar range
O=C(Cc1ccccc1)C1=C[CH]([Ru-]2([PH](c3ccccc3)(c3ccccc3)c3ccccc3)[n+]3ccccc3-c3cccc[n+]32)C=C1.O=S(=O)([O-])C(F)(F)F (stereo not shown)    sub-micromolar range
CCC(=O)C1=C[CH]([Ru-]2([PH](c3ccccc3)(c3ccccc3)c3ccccc3)[n+]3ccccc3-c3cccc[n+]32)C=C1.O=S(=O)([O-])C(F)(F)F (stereo not shown)    sub-micromolar range

Reference source for all entries: patent US20250195463A1
